Target: FGFR1 (UniProt P11362)
Sequence (P11362 whole entry, looked up): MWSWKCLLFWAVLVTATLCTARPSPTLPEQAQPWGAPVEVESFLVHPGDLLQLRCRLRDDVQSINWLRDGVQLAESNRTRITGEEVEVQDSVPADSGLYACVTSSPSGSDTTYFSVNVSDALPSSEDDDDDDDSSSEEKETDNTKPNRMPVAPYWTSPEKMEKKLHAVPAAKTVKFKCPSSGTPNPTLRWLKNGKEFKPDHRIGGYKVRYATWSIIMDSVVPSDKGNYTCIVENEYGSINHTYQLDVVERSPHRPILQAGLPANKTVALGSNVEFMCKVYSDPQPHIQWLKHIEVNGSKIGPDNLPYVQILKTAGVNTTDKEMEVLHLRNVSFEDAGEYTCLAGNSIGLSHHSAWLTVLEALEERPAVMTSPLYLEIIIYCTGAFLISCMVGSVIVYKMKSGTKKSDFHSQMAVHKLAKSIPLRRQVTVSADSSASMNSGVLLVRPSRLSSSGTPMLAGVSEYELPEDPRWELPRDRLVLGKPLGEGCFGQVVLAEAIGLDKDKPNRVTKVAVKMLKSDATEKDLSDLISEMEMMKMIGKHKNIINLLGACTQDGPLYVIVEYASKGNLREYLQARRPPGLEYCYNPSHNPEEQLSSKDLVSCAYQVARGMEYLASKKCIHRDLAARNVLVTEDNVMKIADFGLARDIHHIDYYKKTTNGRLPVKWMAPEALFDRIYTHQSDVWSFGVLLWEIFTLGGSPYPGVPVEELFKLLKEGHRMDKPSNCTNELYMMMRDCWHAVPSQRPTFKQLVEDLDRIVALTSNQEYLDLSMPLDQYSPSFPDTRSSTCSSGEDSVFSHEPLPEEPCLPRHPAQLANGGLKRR
Test: phosphorylation enrichment, bacterial display (enrichment ratio); higher = better substrate or ligand; peptides without Tyr show the background;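 note: 11-residue human phosphosite peptides and single-mutation variants displayed on the E. coli surface, counted by deep sequencing, each peptide's frequency after selection divided by its frequency in the unselected input library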;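 note: frequency after pTyr selection over input frequency; kinase dosed for 20-30% of maximal phosphorylation in three min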
So basically: phosphorylation enrichment at 0.5 or higher? That is class 1. Lower than 0.5? That is class 0.

Does SIKDKYVTVLF [KCNH2_Y611_A614V_YF] have a reported phosphorylation enrichment of at least 0.5?
class 0

Does RQSRNYLGGFA [SYK_Y47] have a reported phosphorylation enrichment of at least 0.5?
class 0

Does EPNSRYTYKLE [USH2A_Y3745] have a reported phosphorylation enrichment of at least 0.5?
class 0

Does RESVSYLFSHV [PRPS1_Y311_G306R] have a reported phosphorylation enrichment of at least 0.5?
class 1

Does HRAVEYLLMGI [RAD23A_Y197_T200M] have a reported phosphorylation enrichment of at least 0.5?
class 1

Does FKDGQYWIRGQ [ACSF3_Y466_R471Q] have a reported phosphorylation enrichment of at least 0.5?
class 1

Does SYTDPYAQPPL [KMT2D_Y2378] have a reported phosphorylation enrichment of at least 0.5?
class 1

Does IDGLEYLHSQS [STK11_Y166_G171S] have a reported phosphorylation enrichment of at least 0.5?
class 0

Does MSSAGYRAAEG [COL6A3_Y543_T538M] have a reported phosphorylation enrichment of at least 0.5?
class 0

Does DFGSGYPNDPK [RNASEH2A_Y210_YF] have a reported phosphorylation enrichment of at least 0.5?
class 0

Does RRIHSYRCHLW [VHL_Y112_G114C] have a reported phosphorylation enrichment of at least 0.5?
class 1

Does NKKFHYRELPV [ERN2_Y860_H858Y_YF] have a reported phosphorylation enrichment of at least 0.5?
class 0

Does ELTTCYRKKCS [CCBE1_Y70_C75S] have a reported phosphorylation enrichment of at least 0.5?
class 1

Does IPGGIYNADLN [CST4_Y35_D36N] have a reported phosphorylation enrichment of at least 0.5?
class 1

Does DIPIRYSITGV [CDH4_Y205] have a reported phosphorylation enrichment of at least 0.5?
class 0

Does SAEKAYHEQLS [TUBA1A_Y282] have a reported phosphorylation enrichment of at least 0.5?
class 1

Does IYGASYVPFAA [RBM47_Y541] have a reported phosphorylation enrichment of at least 0.5?
class 1

Does MEFLPYGSLRD [JAK2_Y934_YF] have a reported phosphorylation enrichment of at least 0.5?
class 0

Does YRIGPYQPSVP [MATR3_Y784_N787S] have a reported phosphorylation enrichment of at least 0.5?
class 1

Does GRRNTYYASIA [ACADM_Y352] have a reported phosphorylation enrichment of at least 0.5?
class 0

Does GPRKAYELSQR [SETX_Y1297] have a reported phosphorylation enrichment of at least 0.5?
class 0

Does NSFKYYMSDDI [ATRX_Y204_C200S] have a reported phosphorylation enrichment of at least 0.5?
class 1

Does RSDSSYRMSAT [NHS_Y1532] have a reported phosphorylation enrichment of at least 0.5?
class 1

Does TAALWYIFLHT [ENG_Y612_S615L_YF] have a reported phosphorylation enrichment of at least 0.5?
class 1

Does DLDLTSIFPNI [PTEN_Y27_Y27S_YF] have a reported phosphorylation enrichment of at least 0.5?
class 0

Does AVDDKYSRREE [SART1_Y685_I681V] have a reported phosphorylation enrichment of at least 0.5?
class 0

Does EKKKFYDAKIE [CASP5_Y104_T106A_YF] have a reported phosphorylation enrichment of at least 0.5?
class 0

Does ACCLLYHGDVV [TUBA4A_Y319_R320H] have a reported phosphorylation enrichment of at least 0.5?
class 1

Does VDASFYGGRGV [ANTXR2_Y381_YF] have a reported phosphorylation enrichment of at least 0.5?
class 0

Does GRVFVYHLSEQ [ITGAE_Y551_R552H_YF] have a reported phosphorylation enrichment of at least 0.5?
class 1

Does FSKTQYNQVPR [CXADR_Y318_S323R_YF] have a reported phosphorylation enrichment of at least 0.5?
class 0

Does KTTSGYAGGLS [KRT8_Y419] have a reported phosphorylation enrichment of at least 0.5?
class 0

Does SLFNGYVFSGV [NEIL3_Y71_YF] have a reported phosphorylation enrichment of at least 0.5?
class 1

Does AELKLYSGAQT [ZAP70_Y178_R175L] have a reported phosphorylation enrichment of at least 0.5?
class 0

Does GGEAIYAAPFA [Abl_opt_1995] have a reported phosphorylation enrichment of at least 0.5?
class 1

Does GCRSKYVGLWR [KCNQ1_Y184_G189R] have a reported phosphorylation enrichment of at least 0.5?
class 0

Does WIPNQYPIISE [NOG_Y222_I220N] have a reported phosphorylation enrichment of at least 0.5?
class 1

Does TSNQEYLDLSM [FGFR1_Y766] have a reported phosphorylation enrichment of at least 0.5?
class 1

Does RTVPLYESLRK [DDB1_Y718_P721L] have a reported phosphorylation enrichment of at least 0.5?
class 0

Does AIMSFYAALID [RYR1_Y2426] have a reported phosphorylation enrichment of at least 0.5?
class 0

Does GLIPAYHRFIM [NMNAT1_Y64_V67F] have a reported phosphorylation enrichment of at least 0.5?
class 1

Does RAHARYCADAR [ACOT4_Y52] have a reported phosphorylation enrichment of at least 0.5?
class 0

Does TISPYYRQSLF [CRYAA_Y48] have a reported phosphorylation enrichment of at least 0.5?
class 1
